Experiment: viability loss with induced miR-34 in A549 – imaging, A549 dox-inducible miR-34, nuclei and caspase counts, primary screen (AID 1347080); further: test concentration not given here
Conditions: A549 miR-34 inducible, Hoechst nuclei count, 48 h; active compounds read low; cell number ratio, induced over uninduced
# fold change per entry
When you answer, write just the number.

O=c1[nH]c2cc(Cl)ccc2c(O)c1-c1ccc(Oc2ccccc2)cc1 :: 1.06
Nc1nc(=O)n([C@@H]2CS[C@H](CO)O2)cc1F :: 0.911
Cc1nc(NC(=O)NCC2COc3ccccc3O2)nn1C(C)C (centres undefined) :: 0.958
COC(=O)NC(C(=O)NC(Cc1ccccc1)C(O)CN(Cc1ccc(-c2ccccn2)cc1)NC(=O)C(NC(=O)OC)C(C)(C)C)C(C)(C)C (centres undefined) :: 0.891
O=C(O)C1=CC(O)C(O)C(O)C1 (centres undefined) :: 0.975
NC(=O)C1=CN(C2OC(COP(=O)(O)OP(=O)(O)OC[C@H]3O[C@@H](n4cnc5c(N)ncnc54)C(OP(=O)(O)O)[C@H]3O)C(O)C2O)C=CC1 (some centres undefined) :: 1.07
O=C(O)c1ccc(O)cc1O :: 0.891
COC(=O)/C=C/c1ccc(C(=O)NCC(=O)N[C@@H](CCC(=O)OC)C(=O)N[C@@H](CC(C)C)C(N)=O)cc1 :: 0.902
O=C(c1ccnc(Cl)c1)N1CCc2[nH]nc(C3CCC3)c2C1 :: 0.923
CCCCCCCCCCCCCCC[C@H](O)[C@H](N)CO :: 0.911

[in] Look up fold change for this compound: CCOC(=O)N1c2ccc(C(F)(F)F)cc2C(N(Cc2cc(C(F)(F)F)cc(C(F)(F)F)c2)C(=O)OC)CC1CC (centres undefined)
[out] 0.939

[in] GET /values?readout=fold change&item= CN[C@@H]1C(O[C@H]2O[C@H](CO)[C@@H](N)[C@H](O)[C@H]2O)O[C@H]2C[C@@H](N)[C@@H](O[C@H]3[C@H](O)[C@@H](O)[C@H](N)C[C@@H]3N)OC2[C@@H]1O (some centres undefined)
[out] 1.02

[in] May I ask what fold change has been recorded for Cc1cccc(C2CN(C)CCc3c2cc(O)c(O)c3Cl)c1 (centres undefined) ?
[out] 0.998

[in] Requested read-out: fold change. Entry: Cc1cc(NC2CCCCC2)nc(-n2nc(C)cc2C)n1
[out] 1.09

[in] Request the reported fold change associated with C=CC1=C(C(=O)O)N2C(=O)[C@H](NC(=O)C(=NO)c3csc(N)n3)[C@H]2SC1
[out] 0.881

[in] Which fold change is reported for this compound? CNS(=O)(=O)c1ccc(NC(=O)c2ccccc2C(=O)O)cc1 (tested in a mixture with another compound)
[out] 0.903

----------
The following compounds are shown together with reported z-score values.
Assay: MELAS cybrid and Rieske KO viability enhancers – cell-based, MELAS cybrids, Rieske KO mouse fibroblasts, CellTiter-Glo, primary screen (AID 1508586);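 further: test concentration not given here; z relative to plate mean and SD of compound and empty wells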
Settings: MELAS cybrid survival, low glucose, CellTiter-Glo 48 h; active compounds read high
# answer = number (no unit)

[in] Data request, read-out z-score, for Cc1c(Br)c(=O)oc2c(Br)c(O)ccc12
[out] 0.723

[in] If you can, please state the reported z-score value of OC(COc1cccc2ncccc12)CN1CCN(C2c3ccccc3C3C(c4ccccc42)C3(F)F)CC1 (stereo not given) .
[out] -0.428

[in] # get_value(readout='z-score', item= O[C@H]1[C@H](O)[C@@H](O)[C@@H]2O[C@@H]2[C@@H]1O )
[out] 0.534

[in] Query: z-score; subject: NC(=O)NN=Cc1ccc([N+](=O)[O-])o1
[out] -0.0834

[in] Given the compound COc1ccc(CN2CCN(c3ncnc4sccc34)CC2=O)cc1 , what is its reported z-score?
[out] -0.496

[in] Look up z-score for this compound: CCC1OC(=O)C(C)C(OC2C[C@@](C)(OC)C(O)C(C)O2)C(C)C(OC2OC(C)CC(N(C)C)C2O)[C@](C)(OC)CC(C)C(=O)C(C)C(O)[C@]1(C)O (stereo not given in full)
[out] -0.386

[in] // query z-score value for entry CC(C)Cn1nc(C(=O)N2CCOCC2)c2c1CCC(NCc1ccc(F)cc1)C2 (stereo not given)
[out] 0.123

[in] Need z-score, item Cc1csc(-c2cc(C(=O)N(C)C3CCN(C)CC3)cc(S(=O)(=O)N3CCOCC3)c2)c1
[out] -0.654

[in] // lookup z-score for CC(CCC(=O)O)C1CC[C@H]2[C@@H]3CC[C@@H]4CC(O)CC[C@]4(C)[C@H]3CC[C@]12C (stereo not given in full)
[out] -0.0806

[in] # lookup: z-score of CCC1C(=O)N(C)c2cnc(Nc3ccc(C(=O)NC4CCC(N5CCN(CC6CC6)CC5)CC4)cc3OC)nc2N1C(C)C (stereo not given)
[out] 6.19

Data credit: PubChem BioAssay
